Kindly supply the reported Kp values for the records listed here.
Test: Ratio of drug level from brain to plasma in ICR mouse at 10 mg/kg, ip from 30 mins to 3 hrs by LC-MS/MS analysis
Assay type: ADME, organism-based
Set-up: dose 10 mg/kg, route intraperitoneal
Details: read-out: BPR
Reply with the value as a number alone.

Can you share its Kp? I mean this molecule: CCCOC(c1ccc2ccccc2c1)C1CNC1.Cl (configuration not stated) 0.86

Next: Cl.c1ccc(OC(c2ccc3ccccc3c2)C2CNC2)cc1 (configuration not stated) 2.7

====

Molecular target: UniProt P10635
Sequence (P10635 whole entry): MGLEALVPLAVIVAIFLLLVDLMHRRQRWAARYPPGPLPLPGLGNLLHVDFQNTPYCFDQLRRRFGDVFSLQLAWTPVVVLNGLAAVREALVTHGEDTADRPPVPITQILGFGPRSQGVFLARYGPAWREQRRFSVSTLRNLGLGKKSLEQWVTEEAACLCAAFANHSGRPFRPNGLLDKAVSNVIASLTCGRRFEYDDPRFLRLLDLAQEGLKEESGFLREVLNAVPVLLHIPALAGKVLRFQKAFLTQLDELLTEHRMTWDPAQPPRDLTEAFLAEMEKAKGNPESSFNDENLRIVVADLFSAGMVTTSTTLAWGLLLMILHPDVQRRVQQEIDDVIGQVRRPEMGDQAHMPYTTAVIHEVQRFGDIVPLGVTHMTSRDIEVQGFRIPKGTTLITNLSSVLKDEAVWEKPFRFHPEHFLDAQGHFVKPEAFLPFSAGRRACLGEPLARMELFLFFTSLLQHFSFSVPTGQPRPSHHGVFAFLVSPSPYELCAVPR
Experiment: Inhibition of human recombinant CYP2D6 at 10 uM after 5 mins by fluorescence assay
Kindly supply the reported inhibition at 5 min, 10 µM values for the records listed here.
# number only, unit % dropped from output

Notebook entry, UniProt P10635 assay: inhibition at 5 min, 10 µM of Clc1ccc(OC(c2ccc3ccccc3c2)C2CNC2)cc1Cl (configuration not stated) = ? 25

Next: Cl.c1ccc(OC(c2ccc3ccccc3c2)C2CNC2)cc1 (configuration not stated) 16
